biological target: FUS-SNAP condensates (Homo sapiens, UniProt P35637); experiment: Fluorescence imaging of dye partitioning in FUS-SNAP condensates (I-in, I-out); format: physicochemical; details: outside FUS-SNAP condensate; 10 μM dye, 5 μM protein; image 1; one day of experiments
Sequence (P35637 whole entry): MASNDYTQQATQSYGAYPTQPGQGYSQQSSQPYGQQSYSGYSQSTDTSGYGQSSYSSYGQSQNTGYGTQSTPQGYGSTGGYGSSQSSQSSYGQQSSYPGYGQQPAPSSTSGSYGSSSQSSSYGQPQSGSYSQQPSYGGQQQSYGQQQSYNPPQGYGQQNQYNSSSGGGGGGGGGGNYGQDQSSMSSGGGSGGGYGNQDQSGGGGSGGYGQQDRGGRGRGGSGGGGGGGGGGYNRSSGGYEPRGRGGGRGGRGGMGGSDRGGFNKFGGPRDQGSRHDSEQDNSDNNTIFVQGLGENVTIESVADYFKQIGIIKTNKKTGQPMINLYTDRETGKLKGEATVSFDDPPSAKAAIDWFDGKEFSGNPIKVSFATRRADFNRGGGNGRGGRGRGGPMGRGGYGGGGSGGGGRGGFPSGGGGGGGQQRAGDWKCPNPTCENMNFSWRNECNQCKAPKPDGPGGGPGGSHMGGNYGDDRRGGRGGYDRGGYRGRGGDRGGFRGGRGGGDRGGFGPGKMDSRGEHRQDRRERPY
Structures can show the parent of a compound that is named as a salt.
Criterion: Intensity Outside with Dye 1 meeting or surpassing 1000. Met: Satisfied. Not met: Not satisfied.

O=C(O)c1cc2cc3c4c(c2oc1=O)CCCN4CCC3 [Dye 3, Coumarin 343]: Satisfied

Ask: Could you please find out whether CC/N=c1/cc2oc3cc(NCC)c(C)cc3c(-c3ccccc3C(=O)NCCOCCOCCN)c-2cc1C.O=C(O)C(F)(F)F [Dye 15] has Intensity Outside with Dye 1 that meets 1000 or exceeds it?
Result: Not satisfied

Ask: Could you please find out whether O=C(CCCC[C@@H]1SCC2NC(=O)NC21)NCCNC(=O)c1ccc(-c2c3ccc(=O)cc-3oc3ccc(O)cc23)c(C(=O)O)c1 (some centres unmarked) [Dye 13, Biotin-4-Fluorescein] has Intensity Outside with Dye 1 that meets 1000 or exceeds it?
Result: Satisfied

Ask: Could you please find out whether N#CC1=c2cc3c4c(c2Oc2c1cc1c5c2CCCN5CCC1)CCC[N+]=4CCC3 [Dye 18, Rhodamine 800] has Intensity Outside with Dye 1 that meets 1000 or exceeds it?
Result: Satisfied

Ask: Could you please find out whether O=c1cc(C(F)(F)F)c2ccc(O)cc2o1 [Dye 2, 7-Hydroxy-4-(trifluoromethyl)-coumarin] has Intensity Outside with Dye 1 that meets 1000 or exceeds it?
Result: Not satisfied

Ask: Could you please find out whether O=C1OC2(c3ccc(O[C@@H]4O[C@H](CO)[C@H](O)[C@H](O)[C@H]4O)cc3Oc3cc(O[C@@H]4O[C@H](CO)[C@H](O)[C@H](O)[C@H]4O)ccc32)c2ccccc21 [Dye 12, Fluorescein di(β-D-galacto-pyranoside)] has Intensity Outside with Dye 1 that meets 1000 or exceeds it?
Result: Not satisfied

Ask: Could you please find out whether O=C([O-])c1ccccc1C1=c2cc3c4c(c2Oc2c1cc1c5c2CCCN5CCC1)CCC[N+]=4CCC3 [Dye 17, Rhodamine 101 inner salt] has Intensity Outside with Dye 1 that meets 1000 or exceeds it?
Result: Not satisfied

Ask: Could you please find out whether CC(=O)N[C@H]1[C@H](Oc2ccc3c(c2)Oc2cc(O)ccc2C32OC(=O)c3ccccc32)O[C@H](CO)[C@H](O)[C@@H]1O (some centres unmarked) [Dye 5] has Intensity Outside with Dye 1 that meets 1000 or exceeds it?
Result: Satisfied

====

# Lookup of reported Ratio of intensity inside:outside PGL-3 Condensates Average keyed by entry
Molecular target: UniProtKB G5EBV6
Sequence (G5EBV6 whole entry): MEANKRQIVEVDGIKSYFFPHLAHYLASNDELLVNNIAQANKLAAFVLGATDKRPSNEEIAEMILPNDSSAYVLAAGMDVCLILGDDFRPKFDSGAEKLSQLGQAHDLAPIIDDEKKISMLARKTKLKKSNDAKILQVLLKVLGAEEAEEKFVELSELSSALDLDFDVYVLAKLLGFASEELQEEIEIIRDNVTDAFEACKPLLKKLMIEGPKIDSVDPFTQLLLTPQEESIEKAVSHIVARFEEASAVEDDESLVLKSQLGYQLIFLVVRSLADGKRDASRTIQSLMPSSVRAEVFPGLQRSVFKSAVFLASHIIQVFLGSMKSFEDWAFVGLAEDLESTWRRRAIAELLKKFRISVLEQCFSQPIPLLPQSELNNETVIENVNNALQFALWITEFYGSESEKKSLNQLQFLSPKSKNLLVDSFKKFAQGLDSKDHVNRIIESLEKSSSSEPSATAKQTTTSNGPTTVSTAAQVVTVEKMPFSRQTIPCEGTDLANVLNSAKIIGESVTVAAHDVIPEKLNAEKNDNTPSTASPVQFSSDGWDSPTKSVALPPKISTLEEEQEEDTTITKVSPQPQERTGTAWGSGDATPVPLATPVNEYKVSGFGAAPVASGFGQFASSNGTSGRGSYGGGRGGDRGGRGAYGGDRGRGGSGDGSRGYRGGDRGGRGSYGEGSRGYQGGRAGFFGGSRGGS
Experiment: Fluorescence imaging of dye partitioning in PGL-3 condensates (I-in, I-out)
Type: physicochemical
Settings: I-in:I-out; average of two days; 10 μM dye
Method: All dye-stocks were stored as 1 mM solutions in 100% DMSO. The dyes were dissolved in dilution buffer (DB: 14.7 mM Tris, pH 7.25, 1 mM DTT) to yield 11.765 μM dye in 1.1765 DMSO. 17 μl of dye was distributed in a 384 well non-binding plate (Greiner). […] A spinning disk confocal microscope was used to acquire images of the samples. […] The laser power was set to 20% and the exposure times were adjusted to the fluorescence emission intensity specific for each dye. […]
Where a name gives a salt, the structure may show the parent alone.

O=C([O-])c1ccccc1C1=c2cc3c4c(c2Oc2c1cc1c5c2CCCN5CCC1)CCC[N+]=4CCC3 [Dye 17, Rhodamine 101 inner salt]: 1.9
N=C(N)c1ccc(-c2cc3ccc(C(=N)N)cc3[nH]2)cc1: 2.6
N#CC1=c2cc3c4c(c2Oc2c1cc1c5c2CCCN5CCC1)CCC[N+]=4CCC3: 2.9

Ask: I would be grateful if you could share the reported Ratio of intensity inside:outside PGL-3 Condensates Average for O=C(O)c1cc2cc3c4c(c2oc1=O)CCCN4CCC3 .
Result: 1.3

====

Molecular target: FUS-SNAP condensates (Homo sapiens, UniProt P35637)
Assay: Fluorescence imaging of dye partitioning in FUS-SNAP condensates (I-in, I-out)
Type: physicochemical
Conditions: inside FUS-SNAP condensate; 10 μM dye, 5 μM protein; image 1; one day of experiments
Procedure: All dye-stocks were stored as 1 mM solutions in 100% DMSO. The dyes were dissolved in dilution buffer (DB: 14.7 mM Tris, pH 7.25, 1 mM DTT) to yield 11.765 μM dye in 1.1765 DMSO. 17 μl of dye was distributed in a 384 well non-binding plate (Greiner). […] A spinning disk confocal microscope was used to acquire images of the samples. […] The laser power was set to 20% and the exposure times were adjusted to the fluorescence emission intensity specific for each dye. […]
# Lookup of reported Intensity Inside with Dye 1 keyed by entry

Examples with answers:
CCN(CC)c1ccc2c(-c3ccccc3C(=O)O)c3ccc(=[N+](CC)CC)cc-3oc2c1 [Dye 16, Rhodamine B]: 2154.5
CC(=O)N[C@H]1[C@H](Oc2ccc3c(c2)Oc2cc(O)ccc2C32OC(=O)c3ccccc32)O[C@H](CO)[C@H](O)[C@@H]1O (some centres unmarked) [Dye 5]: 2046.8
N#CC1=c2cc3c4c(c2Oc2c1cc1c5c2CCCN5CCC1)CCC[N+]=4CCC3 [Dye 18, Rhodamine 800]: 15394.5
O=C1OC2(c3ccc(O)cc3Oc3cc(O)ccc32)c2ccccc21 [Dye 6, Fluorescein]: 6328.8
O=c1cc(C(F)(F)F)c2ccc(O)cc2o1 [Dye 2, 7-Hydroxy-4-(trifluoromethyl)-coumarin]: 278.2

Ask: I would be grateful if you could share the reported Intensity Inside with Dye 1 for O=C(O)c1cc2cc3c4c(c2oc1=O)CCCN4CCC3 [Dye 3, Coumarin 343] .
Result: 3451.6

Ask: I would be grateful if you could share the reported Intensity Inside with Dye 1 for N=C(N)c1ccc(-c2cc3ccc(C(=N)N)cc3[nH]2)cc1 [Dye 1, DAPI] .
Result: 638.5

Ask: I would be grateful if you could share the reported Intensity Inside with Dye 1 for CC(=O)c1cc2cc3c4c(c2oc1=O)CCCN4CCC3 [Dye 4, Coumarin 334] .
Result: 10755.9

====

molecular target: FUS-SNAP condensates (Homo sapiens, UniProt P35637); assay: Fluorescence imaging of dye partitioning in FUS-SNAP condensates (I-in, I-out); format: physicochemical; conditions: outside FUS-SNAP condensate; 10 μM dye, 5 μM protein; average of three images; one day of experiments
Counter-ions that a name gives are not always drawn.
measured_endpoint: Intensity Outside with Dye Average
Just the number, please, no unit after it.

N#CC1=c2cc3c4c(c2Oc2c1cc1c5c2CCCN5CCC1)CCC[N+]=4CCC3: 2092.2
O=C1OC2(c3ccc(O[C@@H]4O[C@H](CO)[C@H](O)[C@H](O)[C@H]4O)cc3Oc3cc(O[C@@H]4O[C@H](CO)[C@H](O)[C@H](O)[C@H]4O)ccc32)c2ccccc21 [Dye 12, Fluorescein di(β-D-galacto-pyranoside)]: 148.6
COC(=O)c1ccccc1-c1c2ccc(=N)cc-2oc2cc(N)ccc12.Cl: 2277.6
O=C1OC2(c3ccc(O)cc3Oc3cc(O)ccc32)c2ccccc21: 3784.7
CCN(CC)c1ccc2c(-c3ccccc3C(=O)O)c3ccc(=[N+](CC)CC)cc-3oc2c1: 540.2
O=c1cc(C(F)(F)F)c2ccc(O)cc2o1 [Dye 2, 7-Hydroxy-4-(trifluoromethyl)-coumarin]: 232.0
CC(=O)Oc1ccc2c(c1)Oc1cc(OC(C)=O)ccc1C21OC(=O)c2ccccc21 [Dye 9, Fluorescein diacetate]: 1485.0
CC(=O)N[C@H]1[C@H](Oc2ccc3c(c2)Oc2cc(O)ccc2C32OC(=O)c3ccccc32)O[C@H](CO)[C@H](O)[C@@H]1O (some centres unmarked): 1272.5
O=C([O-])c1ccccc1C1=c2cc3c4c(c2Oc2c1cc1c5c2CCCN5CCC1)CCC[N+]=4CCC3 [Dye 17, Rhodamine 101 inner salt]: 902.4
CC(=O)c1cc2cc3c4c(c2oc1=O)CCCN4CCC3: 5030.3

Ask: I would be grateful if you could share the reported Intensity Outside with Dye Average for O=C(CCCC[C@@H]1SCC2NC(=O)NC21)NCCNC(=O)c1ccc(-c2c3ccc(=O)cc-3oc3ccc(O)cc23)c(C(=O)O)c1 (some centres unmarked) .
Result: 2242.3

Ask: I would be grateful if you could share the reported Intensity Outside with Dye Average for CC/N=c1/cc2oc3cc(NCC)c(C)cc3c(-c3ccccc3C(=O)NCCOCCOCCN)c-2cc1C.O=C(O)C(F)(F)F .
Result: 539.8

Ask: I would be grateful if you could share the reported Intensity Outside with Dye Average for N=C(N)c1ccc(-c2cc3ccc(C(=N)N)cc3[nH]2)cc1 .
Result: 228.6

Ask: I would be grateful if you could share the reported Intensity Outside with Dye Average for O=C(O)c1cc2cc3c4c(c2oc1=O)CCCN4CCC3 .
Result: 1498.4
